- Test system: barnyardgrass
- assay name: Test A pre-/postemergence herbicide test
- Format: in vivo, Echinochloa crus-galli
- measurement parameters: preemergence, 500 g ai/ha; 0 to 100 scale (0 no effect, 100 complete control)
- Text: […]
quantity measured: Plant response rating, Barnyardgrass

| molecule | quantity measured | result |
| --- | --- | --- |
| O=C1NCC(c2ccc(F)cc2)C1C(=O)Nc1ccccc1F (racemic) | Plant response rating, Barnyardgrass | 90 |
| O=C1NCC(c2ccc(Cl)c(F)c2)C1C(=O)Nc1ccccc1F (centres unmarked) | Plant response rating, Barnyardgrass | 90 |
| O=C1NCC(c2ccccc2)C1C(=O)Nc1cccc(F)c1F (centres unmarked) | Plant response rating, Barnyardgrass | 90 |
| CCc1cccc(C2CNC(=O)C2C(=O)Nc2ccc(F)c(F)c2F)c1 (racemic) | Plant response rating, Barnyardgrass | 90 |

Give me measured Plant response rating, Barnyardgrass, please, for this molecule: Cc1ccc(C2CNC(=O)C2C(=O)Nc2ccccc2F)cc1 (racemic)
90

Give me measured Plant response rating, Barnyardgrass, please, for this molecule: O=C1NCC(c2ccccc2)C1C(=O)Nc1ccccc1F (racemic)
80

Give me measured Plant response rating, Barnyardgrass, please, for this molecule: O=C1NCC(c2cccc(Br)c2)C1C(=O)Nc1ccccc1F (centres unmarked)
90

Give me measured Plant response rating, Barnyardgrass, please, for this molecule: O=C1NCC(c2cccc(C(F)(F)F)c2)C1C(=O)Nc1ncc(Cl)s1 (racemic)
0

###

Each entry below carries its reported Soybean plant response rating.
- System: soybean
- assay name: Test C pre-/postemergence herbicide test
- Type: in vivo, Glycine max
- measurement parameters: Preemergence, 62 g ai/ha; scale 0 to 100 (0 no effect, 100 complete control)
Number only, no unit.

Illustrative cases are given below, each with its answer.
| molecule | Soybean plant response rating |
| --- | --- |
| CN1CC(c2ccc(F)c(F)c2)C(C(=O)Nc2ccccc2F)C1=O (stereo not drawn) | 30 |
| O=C1NCC(c2ccc(C(F)(F)F)nc2)C1C(=O)Nc1cccc(F)c1F (racemic) | 0 |
| O=C1NCC(c2cccc(OC(F)F)c2)C1C(=O)Nc1ccc(F)c(F)c1F (stereo not drawn) | 0 |
| O=C1NCC(c2ccc(C(F)(F)F)nc2)C1C(=O)Nc1ccccc1F (racemic) | 0 |
| O=C1NCC(c2ccc(C(F)(F)F)c(F)c2)C1C(=O)Nc1cccc(F)c1F (racemic) | 0 |

Continue with the next molecule.
Give me measured Soybean plant response rating, please, for this molecule: O=C1NCC(c2cccc(Br)c2)C1C(=O)Nc1ccccc1F (stereo not drawn)
0

###

Each entry below carries its reported Plant response rating, Pigweed.
- System: pigweed
- assay name: Test A pre-/postemergence herbicide test
- Format: in vivo, Amaranthus retroflexus
- measurement parameters: Preemergence, 125 g ai/ha; 0 to 100 scale where 0 is no effect and 100 is complete control
Number only, no unit.

Illustrative cases are given below, each with its answer.
| compound | quantitative readout |
| --- | --- |
| O=C1NCC(c2ccc(Cl)s2)C1C(=O)Nc1cccc(F)c1F (stereo not drawn) | 0 |
| O=C1NCC(c2ccc(OC(F)(F)F)cc2)C1C(=O)Nc1cccc(F)c1F (racemic) | 0 |

Continue with the next compound.
Give me measured Plant response rating, Pigweed, please, for this compound: CC(C)(C)c1cccc(C2CNC(=O)C2C(=O)Nc2ccccc2F)c1 (stereo not drawn)
0
